These entries and their values trace back to patent US7662832B2.

Target: Proton Pump (H^+/K^+-ATPase) (Sus scrofa, UniProt P19156)
Sequence (P19156 2-1034 limits assumed): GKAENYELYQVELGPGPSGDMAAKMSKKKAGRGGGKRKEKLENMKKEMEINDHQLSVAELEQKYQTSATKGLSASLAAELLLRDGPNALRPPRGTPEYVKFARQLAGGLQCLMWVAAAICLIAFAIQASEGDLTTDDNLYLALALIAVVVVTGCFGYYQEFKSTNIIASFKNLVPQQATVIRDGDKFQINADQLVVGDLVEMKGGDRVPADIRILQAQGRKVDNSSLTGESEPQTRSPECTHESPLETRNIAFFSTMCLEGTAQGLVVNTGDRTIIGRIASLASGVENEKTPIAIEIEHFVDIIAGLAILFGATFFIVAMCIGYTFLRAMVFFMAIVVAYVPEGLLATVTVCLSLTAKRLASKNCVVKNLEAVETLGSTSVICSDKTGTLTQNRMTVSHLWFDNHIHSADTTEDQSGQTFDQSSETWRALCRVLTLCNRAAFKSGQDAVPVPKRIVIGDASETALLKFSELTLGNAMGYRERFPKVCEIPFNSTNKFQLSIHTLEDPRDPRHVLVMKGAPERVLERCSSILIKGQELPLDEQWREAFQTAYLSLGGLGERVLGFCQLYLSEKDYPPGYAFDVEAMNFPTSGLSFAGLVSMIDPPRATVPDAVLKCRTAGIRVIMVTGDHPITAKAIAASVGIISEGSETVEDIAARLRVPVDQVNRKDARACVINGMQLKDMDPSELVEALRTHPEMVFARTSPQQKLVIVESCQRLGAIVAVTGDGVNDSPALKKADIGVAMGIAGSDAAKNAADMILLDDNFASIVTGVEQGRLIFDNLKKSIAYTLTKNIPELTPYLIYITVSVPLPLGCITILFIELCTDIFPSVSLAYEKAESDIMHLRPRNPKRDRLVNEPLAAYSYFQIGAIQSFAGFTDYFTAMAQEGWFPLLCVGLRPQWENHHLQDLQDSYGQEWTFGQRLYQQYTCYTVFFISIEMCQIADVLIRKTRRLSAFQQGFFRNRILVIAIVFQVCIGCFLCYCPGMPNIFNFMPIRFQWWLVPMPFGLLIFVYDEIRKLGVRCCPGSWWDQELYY
Sequence (P18434 whole entry partner): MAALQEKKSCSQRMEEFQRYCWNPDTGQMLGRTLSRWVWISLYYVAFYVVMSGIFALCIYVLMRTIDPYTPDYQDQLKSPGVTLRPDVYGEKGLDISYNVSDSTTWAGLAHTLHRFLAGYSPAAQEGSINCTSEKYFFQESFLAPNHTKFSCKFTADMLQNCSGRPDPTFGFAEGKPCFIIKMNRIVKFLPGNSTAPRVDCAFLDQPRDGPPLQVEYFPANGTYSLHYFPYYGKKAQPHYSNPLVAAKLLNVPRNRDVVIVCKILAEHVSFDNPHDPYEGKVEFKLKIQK
Assay: Inhibitory effects on proton pump (H^+/K^+-ATPase) activity
Conditions: hog gastric vesicles; K^+ stimulated H^+/K^+-ATPase activity; 30 minutes at 37° C.
pIC50: −log10 of the molar value. Where a name gives a salt, the structure may show the parent alone.
We use 7 as the dividing line for pIC50: on or above the line is TRUE, below is FALSE.

Query: Is the recorded value of pIC50 equal to or greater than 7 for this compound? CC(C)=CCn1c(C)c(C)c2cc(C(=O)N3CCN(C)CC3)nc(N3CCc4ccccc4C3)c21 [Example 834, hydrochloride]
Result: TRUE

Query: Could you tell me if the measured pIC50 of C=C=Cn1c(C)c(C)c2ccnc(N3CCc4ccccc4C3)c21 [Example 526, hydrochloride] reaches 7 or more?
Result: FALSE

Query: Test whether the compound C=Cc1ccc(-c2nccc3c(C)c(C)n(Cc4ccc(F)cc4)c23)cc1 [Example 258, hydrochloride] records pIC50 of 7 or higher.
Result: FALSE

Query: Check if pIC50 >= 7 (inclusive). Item: `Cc1[nH]c2c(N3CCc4ccccc4C3)nc(C=O)cc2c1C`
Result: FALSE

Query: hey, is pIC50 for this one >= 7? Cc1[nH]c2c(N3CCc4ccccc4C3C)nccc2c1C (centres unmarked) [Example 560, sodium]
Result: TRUE

Query: Reported pIC50 at or above 7? Cc1c(C)n(Cc2ccc(Cl)cc2)c2c(CCc3ccccc3)nccc12 [Example 446, hydrochloride]
Result: FALSE

====

Molecular target: Proton Pump (H^+/K^+-ATPase) (Sus scrofa)
Assay: Inhibitory effects on proton pump (H^+/K^+-ATPase) activity
Settings: hog gastric vesicles; K^+ stimulated H^+/K^+-ATPase activity; 30 minutes at 37° C.
Where a name gives a salt, the structure may show the parent alone.
Kindly state pIC50 for each of the entries shown.
Remember the convention: pIC50 equals -log10 of concentration in molar.

Query: I'd like to know its pIC50. The molecule in question is Cc1ccc(Cn2c(C)c(C)c3ccnc(N4CCc5ccccc5C4)c32)cc1.Cl [Example 477, hydrochloride]
Result: 6.52

Query: Give the measured pIC50 of Cc1c(CO)c2ccnc(N3CCc4ccccc4C3)c2n1Cc1cccc(F)c1 [Example 617, hydrochloride] .
Result: 7.19

Query: I am curious: what pIC50 value has been reported for `Cc1c(C)n(Cc2cccc(Cl)c2)c2c(N3CCc4ccccc4C3)nc(-c3nnnn3C)cc12` ?
Result: 7.44

Query: Bench note: what pIC50 did Cc1c(C)n(Cc2ccccc2)c2c(N3CCc4ccccc4C3)nc(CO)cc12 [Example 850, hydrochloride] show?
Result: 7.28

Query: Can you share its pIC50? I mean this molecule: Cc1ccc(CNc2nccc3c(C)c(C)n(CC(C)C)c23)cc1 [Example 198, hydrochloride]
Result: 7.19

Query: What does the record list as pIC50 for C=COCCn1c(C)c(C)c2ccnc(N3CCc4ccccc4C3)c21.Cl [Example 511, hydrochloride] ?
Result: 6.38

Query: Return reported pIC50; argument: Cc1[nH]c2c(N3CCc4ccccc4C3C)nccc2c1C (centres unmarked) [Example 552, hydrochloride]
Result: 7.44

Query: Consider the molecule Cc1c(C)n(Cc2ccccc2)c2c(N3CCc4ccccc4C3)nc(C(=O)N(C)C)cc12 [Example 771, hydrochloride] and give its measured pIC50.
Result: 7.44
